- Tested on: Mycosphaerella graminicola; Anamorph: Septoria tritici; Bayer Code SEPTTR
- ASSAY_PROCEDURE: Leaf blotch of wheat, foliar fungicide treatment, one day protectant (1DP) or three day curative (3DC)
- Format: in vivo, Septoria tritici on wheat plants (variety Yuma)
- CONDITION_LABEL: Zymoseptoria tritici, 24 h, one day protectant (1DP), 25 ppm, rating of percent disease control, read-out: SETTTR 1DP 25 ppm
Field: pest or weed control at 25 ppm. Provide a value for each of the compounds that follow.

COMPOUND | pest or weed control at 25 ppm
CN1CCCC/C1=N\c1nc(OCc2ccn(C)n2)ncc1F [Compound 751] | 51 to 75%
O=[N+]([O-])c1ccccc1NNc1nc(OCc2ccc(Cl)c(Cl)c2)ncc1F [Compound 283] | 51 to 75%
CC(=O)OCNc1nc(OCc2ccc(F)cc2)ncc1F [Compound 259] | 51 to 75%
Cn1nc(-c2ccccc2)nc1-c1ccccc1COc1ncc(F)c(N)n1 [Compound 320] | 0 to 25%
CC(Oc1ncc(F)c(N)n1)c1ccc(C(F)(F)F)nc1 (stereo not drawn) [Compound 356] | 26 to 50%
O=C(Nc1nc(OCc2ccc(F)cc2)ncc1F)OCc1ccccc1 [Compound 220] | 76 to 100%
CC(Oc1ncc(F)c(N)n1)c1cccc2ccccc12 (stereo not drawn) [Compound 335] | 76 to 100%
COc1ccc(OC(=O)Oc2ncc(F)c(/N=C/N(C)C)n2)cc1 [Compound 523] | 76 to 100%

Problem: # input compound: CCCCN(C)/C=N/c1nc(OCc2ccc(F)cc2)ncc1F [Compound 518] ; wanted: its pest or weed control at 25 ppm
Result: 76 to 100%

###

- System: Mycosphaerella graminicola; Anamorph: Septoria tritici; Bayer Code SEPTTR
- ASSAY_PROCEDURE: Leaf blotch of wheat, foliar fungicide treatment, one day protectant (1DP) or three day curative (3DC)
- Assay type: in vivo, Septoria tritici on wheat plants (variety Yuma)
- CONDITION_LABEL: Zymoseptoria tritici, 24 h, one day protectant (1DP), 25 ppm, rating of percent disease control, read-out: SETTTR 1DP 25 ppm
Field: pest or weed control at 25 ppm. Provide a value for each of the compounds that follow.

Consider the following illustrative entries.
STRUCTURE_AS_SMILES | pest or weed control at 25 ppm
Fc1ccc(COc2ncc(F)c(/N=C/N3CCOCC3)n2)cc1 | 76 to 100%
Nc1nc(OCc2ccc(-c3ccccn3)s2)ncc1F | 76 to 100%

Batch of 3 compounds: report pest or weed control at 25 ppm for each.
1. CC[Si](CC)(CC)Nc1nc(OCCc2ccc(Cl)cc2)ncc1F
2. CCCNC(=O)N(C(=O)NCCC)c1nc(OCc2cccc(F)c2)ncc1F
3. COc1cc(Cl)c(COc2ncc(F)c(N)n2)cc1OC

Result:
["51 to 75%", "51 to 75%", "76 to 100%"]

###

- System: Mycosphaerella graminicola; Anamorph: Septoria tritici; Bayer Code SEPTTR
- ASSAY_PROCEDURE: Leaf blotch of wheat, foliar fungicide treatment, one day protectant (1DP) or three day curative (3DC)
- Assay type: in vivo, Septoria tritici on wheat plants (variety Yuma)
- CONDITION_LABEL: Zymoseptoria tritici, 24 h, one day protectant (1DP), 25 ppm, rating of percent disease control, read-out: SETTTR 1DP 25 ppm
ATTRIBUTE_MEASURED: pest or weed control at 25 ppm

Consider the following illustrative entries.
COMPOUND | pest or weed control at 25 ppm
Cn1ccc(COc2ncc(F)c(NCO)n2)n1 | 51 to 75%
Fc1ccc(COc2ncc(F)c(NC3CCCCC3)n2)cc1 | 0 to 25%
O=C(Cc1ccccc1)Nc1nc(OCc2ccc(F)cc2)ncc1F | 76 to 100%
CCOC(=O)COC(=O)Nc1nc(OCc2ccc(F)cc2)ncc1F | 76 to 100%
CC(=O)Nc1nc(OCCNc2ccccc2)ncc1F | 0 to 25%

Batch of 6 compounds: report pest or weed control at 25 ppm for each.
1. CC(Oc1ncc(F)c(/N=C/N2CCOCC2)n1)c1ccc(F)cc1 (centres unmarked)
2. O=[N+]([O-])c1ccccc1SNc1nc(OCc2ccc(F)c(C(F)(F)F)c2)ncc1F
3. Cc1c(N)cccc1COc1ncc(F)c(N)n1
4. CN1CCCC1CCOc1ncc(F)c(N)n1 (centres unmarked)
5. Nc1nc(OCc2cn3ccsc3n2)ncc1F
6. Cc1ccc(COc2ncc(F)c(NC(=O)NCc3ccccc3F)n2)cc1

Result:
1: 76 to 100%; 2: 51 to 75%; 3: 51 to 75%; 4: 51 to 75%; 5: 76 to 100%; 6: 0 to 25%

###

- System: Venturia inaequalis; Bayer Code VENTIN
- ASSAY_PROCEDURE: Apple scab
- Type: in vivo
- CONDITION_LABEL: 24 h, % disease control rating, one day protectant, 75 ppm, read-out: VENTIN 1 DP 75 ppm
Field: pest or weed control at 75 ppm. Provide a value for each of the compounds that follow.

Consider the following illustrative entries.
COMPOUND | MEASUREMENT
Fc1cnc(OCc2ccccn2)nc1NC1CC1 | 0 to 25%
CCNN(CC)c1nc(OCc2ccc(F)cc2)ncc1F | 26 to 50%
C=CC(C)Oc1ncc(F)c(N)n1 (stereo not drawn) | 26 to 50%

Batch of 2 compounds: report pest or weed control at 75 ppm for each.
1. Fc1cnc(OC2CCCCC2)nc1N1CCOCC1
2. COc1cccc(COc2ncc(F)c(N)n2)c1

Result:
["26 to 50%", "76 to 100%"]

Problem: # input compound: "CCOCNc1nc(OCc2ccc(OC)c(F)c2)ncc1F" ; wanted: its pest or weed control at 75 ppm
Result: 26 to 50%

###

- Test system: Mycosphaerella graminicola; Anamorph: Septoria tritici; Bayer Code SEPTTR
- ASSAY_PROCEDURE: Leaf blotch of wheat, foliar fungicide treatment, one day protectant (1DP) or three day curative (3DC)
- Type: in vivo, Septoria tritici on wheat plants (variety Yuma)
- CONDITION_LABEL: Zymoseptoria tritici, 72 h, three day curative (3DC), 25 ppm, percent control rating, read-out: SEPTTR 3DC 25 ppm
ATTRIBUTE_MEASURED: pest or weed control at 25 ppm

COMPOUND | SYSTEM_NAME | pest or weed control at 25 ppm
COc1ccccc1S(=O)(=O)Nc1nc(O)ncc1F [Compound 1102] | Mycosphaerella graminicola; Anamorph: Septoria tritici; Bayer Code SEPTTR | 26 to 50%
CON(C)c1nc(O)ncc1F [Compound 1096] | Mycosphaerella graminicola; Anamorph: Septoria tritici; Bayer Code SEPTTR | 0 to 25%

Then this compound:
Problem: # input compound: O=CNc1nc(OCc2ccccc2)ncc1F [Compound 961] ; wanted: its pest or weed control at 25 ppm
Result: 76 to 100%

###

- System: Mycosphaerella graminicola; Anamorph: Septoria tritici; Bayer Code SEPTTR
- ASSAY_PROCEDURE: Leaf blotch of wheat, foliar fungicide treatment, one day protectant (1DP) or three day curative (3DC)
- Format: in vivo, Septoria tritici on wheat plants (variety Yuma)
- CONDITION_LABEL: Zymoseptoria tritici, 24 h, one day protectant (1DP), 100 ppm, rating of percent disease control, read-out: SEPTTR 1DP 100 ppm
ATTRIBUTE_MEASURED: pest or weed control at 100 ppm

Consider the following illustrative entries.
COMPOUND | SYSTEM_NAME | pest or weed control at 100 ppm
COc1cccc(COc2ncc(F)c(NC(=O)Nc3ccccc3F)n2)c1 | Mycosphaerella graminicola; Anamorph: Septoria tritici; Bayer Code SEPTTR | 0 to 25%
Cc1oc(-c2ccccc2)cc1COc1ncc(F)c(N)n1 | Mycosphaerella graminicola; Anamorph: Septoria tritici; Bayer Code SEPTTR | 76 to 100%
Nc1nc(OCC2Cc3ccccc3O2)ncc1F (centres unmarked) | Mycosphaerella graminicola; Anamorph: Septoria tritici; Bayer Code SEPTTR | 76 to 100%

Batch of 4 compounds: report pest or weed control at 100 ppm for each.
1. COc1cccc(C(=O)Oc2ncc(F)c(/N=C/N(C)C)n2)c1
2. COc1cccc(COc2ncc(F)c(N/N=C/c3ncc[nH]3)n2)c1
3. Nc1nc(OCc2ccccc2Cn2cncn2)ncc1F
4. CN1CCCC/C1=N\c1nc(OCc2cccs2)ncc1F

Result:
1: 76 to 100%; 2: 51 to 75%; 3: 0 to 25%; 4: 76 to 100%

Batch of 6 compounds: report pest or weed control at 100 ppm for each.
1. Cn1ccc2cc(COc3ncc(F)c(N)n3)ccc21
2. O=C(Nc1nc(OCc2ccc(F)cc2)ncc1F)OCc1ccccc1
3. CNN(C)c1nc(OCc2ccc(F)cc2)ncc1F
4. COc1cccc(COc2ncc(F)c(N)n2)c1F
5. CC(C)(C)OC(=O)NOc1ncc(F)c(N)n1
6. O=C(Nc1nc(OCc2cccs2)ncc1F)c1ccccc1

Result:
["51 to 75%", "76 to 100%", "0 to 25%", "76 to 100%", "76 to 100%", "76 to 100%"]

Batch of 2 compounds: report pest or weed control at 100 ppm for each.
1. N#Cc1cccc(COc2ncc(F)c(NC(=S)NCc3ccccc3F)n2)c1
2. CCC(C)C(Oc1ncc(F)c(N)n1)c1ccc(F)cc1 (centres unmarked)

Result:
51 to 75%
76 to 100%

Batch of 7 compounds: report pest or weed control at 100 ppm for each.
1. O=C(Nc1cccs1)Nc1nc(OCc2ccc(F)cc2)ncc1F
2. NN(Cc1ccccc1)c1nc(OCc2ccc(F)cc2)ncc1F
3. Nc1nc(OCc2ccccc2N2CCOCC2)ncc1F
4. Nc1nc(OCc2ccccc2I)ncc1F
5. Cn1nc(C(F)(F)F)c(COc2ncc(F)c(N)n2)c1Cl
6. COc1cccc(COc2ncc(F)c(NC(C)=S)n2)c1
7. CC(Oc1ncc(F)c(N)n1)c1cc(Cl)c(Cl)cc1Cl (centres unmarked)

Result:
["0 to 25%", "76 to 100%", "76 to 100%", "76 to 100%", "76 to 100%", "76 to 100%", "0 to 25%"]

These entries and their values trace back to patent US9204653B2.
